Would you kindly list log10 Kd for each of these binders?
- target-system: N-terminally biotinylated recombinant human PADI4 (bio-His-PADI4) (human, UniProt Q9UM07 1-663, biotin on the N-terminal Avi-Tag (BirA))
- Sequence (Q9UM07 whole entry): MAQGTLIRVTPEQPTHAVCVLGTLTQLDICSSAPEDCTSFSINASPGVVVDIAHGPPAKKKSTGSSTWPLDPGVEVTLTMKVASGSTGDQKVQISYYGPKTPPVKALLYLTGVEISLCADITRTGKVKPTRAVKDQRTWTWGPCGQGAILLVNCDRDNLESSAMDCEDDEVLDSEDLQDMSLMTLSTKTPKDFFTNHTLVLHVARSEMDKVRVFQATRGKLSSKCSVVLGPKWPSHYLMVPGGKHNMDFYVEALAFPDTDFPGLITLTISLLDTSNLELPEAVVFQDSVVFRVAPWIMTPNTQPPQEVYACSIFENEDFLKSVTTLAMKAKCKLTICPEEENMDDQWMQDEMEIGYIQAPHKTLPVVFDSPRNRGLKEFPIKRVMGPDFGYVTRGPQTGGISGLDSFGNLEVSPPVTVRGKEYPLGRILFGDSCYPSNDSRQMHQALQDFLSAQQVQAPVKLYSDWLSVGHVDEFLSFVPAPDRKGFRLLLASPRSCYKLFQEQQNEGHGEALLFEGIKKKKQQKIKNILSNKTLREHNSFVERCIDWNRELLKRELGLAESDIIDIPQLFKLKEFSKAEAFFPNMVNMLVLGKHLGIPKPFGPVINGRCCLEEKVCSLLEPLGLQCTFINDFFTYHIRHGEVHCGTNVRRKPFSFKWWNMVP
- assay-explanation: SPR
Ends that are not written are not given here.
In our notation, the value equals log10 of Kd in nM.

Exam item: Given the entry YESCRYRQVLAL [PADI4_11 Q11A] , report its measured log10 Kd.
Marked response: 2.49

Exam item: Please do the same for AESCRYRQVLQL [PADI4_11 Y1A] as well.
Marked response: 4.05

Exam item: Please do the same for YESCRYKQVLQL (as PADI4_11: thioether cyclisation between the N-terminus and the side chain of C4; C-terminal amide) [PADI4_11 analogue with R7 replaced by lysine] as well.
Marked response: 2.85

Exam item: Please do the same for YQSCRYRQVLQL (as PADI4_11: thioether cyclisation between the N-terminus and the side chain of C4; C-terminal amide) [PADI4_11 analogue with E2 replaced by glutamine] as well.
Marked response: 4.30

Exam item: Please do the same for YESCRYRQALQL [PADI4_11 V9A] as well.
Marked response: 4.15

Exam item: Please do the same for YESCRYRQVLQL (not fully specified; L-tyrosine at position 1; cyclised via a thioether bond between the N-terminus (chloroacetylated) and the side chain of C4; C-terminal amide) [PADI4_11] as well.
Marked response: 2.70

Exam item: Please do the same for YESCRYRAVLQL [PADI4_11 Q8A] as well.
Marked response: 2.70

Exam item: Please do the same for YESARYRQVLQL-NH2 [PADI4_11 analogue with C4 replaced by alanine] as well.
Marked response: 5.07

Exam item: Please do the same for YESCKYRQVLQL (as PADI4_11: thioether cyclisation between the N-terminus and the side chain of C4; C-terminal amide) [PADI4_11 analogue with R5 replaced by lysine] as well.
Marked response: 3.15

Exam item: Please do the same for YESCRYRQVAQL [PADI4_11 L10A] as well.
Marked response: 2.48
